Recorded MBC, one value per entry.
Test system: Propionibacterium acnes NCTC 737
Experiment: Minimum bactericidal concentration (MBC) assay
Format: cell-based
Details: P. acnes NCTC 737; Table 1
Please respond with the number in µg/mL and leave the unit unwritten.

Consider the reported MBC for these molecules:
>>> value_observed("CC(C)(C)c1cc(O)ccc1O [TBHQ, t-butyl-p-hydroquinone]")
7.8
>>> value_observed("O=C([O-])CC(O)(CC(=O)[O-])C(=O)[O-].[Bi+3] [Bismuth citrate]")
7.8
>>> value_observed("[Cl][Bi]([Cl])[Cl] [Bismuth chloride]")
3.9

Attention now turns to another entry.
Input: Sample CC(=O)[O-].CC(=O)[O-].CC(=O)[O-].[Bi+3] [Bismuth acetate] — what was its MBC?
Output: 7.8
